assay: protein stability index of a GFP-peptide fusion (yeast GPS) (PSI 1-4); higher = more stable; sorted into four equal gates, so the index is relative within each strain; details: san1∆

Sequence Text | protein stability index
MSDVEEVVEVQEETVVE [RPS12] | 2.89
QIDYKLESFQAVYNKLT [RPS7A] | 2.41
GELRDYIEDFLLVIGGN [YJR042W/NUP85] | 2.65
GGVGSMGAINNNIPSLT [SNF6] | 3.39
NPIDPFNIIREFRSAAG [YDL116W/NUP84] | 3.16
KLLDNIQEYQLCDNFNH [COR1] | 2.44
KYLDQVLDHQRAIPFRR [RPL17B] | 1.87
EIVRDILHTKESSNEAK [SIR4] | 2.82
FMDEIDSIGSTRVEGSG [RPT6] | 2.84
NPDDDYGFKQEIFDVTS [FAS1] | 3.17
NNFIVERVQSDENKDDE [SRP68] | 2.77
SVPLVIGQFLEPIDQNT [RPT3] | 2.95
SKLLQTTLKLSPSPILL [NUT1] | 1.72
LFLYKELVKAHLGERAA [RPC82] | 2.88
ETPNQDATYDSALELVG [RPN6] | 2.61
RSPVFALNMLPSEILHL [GRR1] | 2.4
RFSPDEDFEHNNLSSMN [MCD1] | 3.09
TRSALKLVRESELLGGT [QCR2] | 2.21
MNHDPFSWGRPADSTYG [PRE4] | 3.15
AYSNTNTNTENENRNTG [SNF11] | 2.95
TKPSLRKASCIWLLSYI [ECM29] | 1.86
